Collected Dmax values appear next to each entry.
- measured on: SMARCA2-HiBiT (Homo sapiens)
- Construct: SMARCA2-HiBiT knock-in Hela monoclonal cell (CS302366); host or cells: HeLa monoclonal knock-in line (CRISPR HiBiT knock-in at the endogenous locus, heterozygous)
- test description: SMARCA2 HiBiT degradation assay in HeLa cells
- Format: cell-based
- conditions: HeLa, 18 hours incubation, read-out: HeLa-HiBit-SM2 Dmax (%)

| compound | assay readout | recorded result |
| --- | --- | --- |
| COC1(CN2CCN3c4cc(-c5ccccc5O)nnc4NC[C@H]3C2)CCN(CC2CCN(c3ccc4c(c3)CN(C3CCC(=O)NC3=O)C4=O)CC2)CC1 (some centres unmarked) [Example 251] | Dmax | > 85% |
| O=C1CCC(N2C(=O)c3ccc(N4CCC(CN5CC6(CC(CN7CCN8c9cc(-c%10ccccc%10O)nnc9NC[C@H]8C7)C6)C5)CC4)cc3C2=O)C(=O)N1 (some centres unmarked) [Example 41] | Dmax | > 85% |
| O=C1CCC(N2Cc3ccc(N4CC(CN5C[C@@H]6[C@H](C5)[C@H]6CN5CCN6c7cc(-c8ccccc8O)nnc7NC[C@H]6C5)C4)cc3C2=O)C(=O)N1 (some centres unmarked) [Example 108] | Dmax | > 85% |

Dmax recorded for this compound, CC(C)(C)C(=O)OCN1C(=O)CCC(N2C(=O)c3cccc(N4CCC(N5CCC(N6CCN7c8cc(-c9ccccc9O)nnc8NC[C@H]7C6)CC5)CC4)c3C2=O)C1=O (some centres unmarked) [Example 123] , is 75 to 85%

Dmax recorded for this compound, O=C1CCC(N2C(=O)c3ccc(N4CCC(CN5CCCC(CN6CCN7c8cc(-c9ccccc9O)nnc8NC[C@H]7C6)C5)CC4)cc3C2=O)C(=O)N1 (some centres unmarked) [Example 35] , is 75 to 85%

Dmax recorded for this compound, C[C@H]1CN2c3cc(-c4ccccc4O)nnc3NC[C@H]2CN1C[C@H]1[C@@H]2CN(CC3CCN(c4ccc5c(c4)C(=O)N(C4CCC(=O)NC4=O)C5=O)CC3)C[C@@H]21 (some centres unmarked) [Example 44] , is 75 to 85%

Dmax recorded for this compound, CC(CN1CCN2c3cc(-c4ccccc4O)nnc3NC[C@H]2C1)C1CCN(CC2CCN(c3ccc4c(c3)C(=O)N(C3CCC(=O)NC3=O)C4=O)CC2)CC1 (some centres unmarked) [Example 249] , is > 85%

Dmax recorded for this compound, O=C1CCC(N2C(=O)c3ccc(N4CCC(CN5CCC(CN6CCN7c8cc(-c9ccccc9O)nnc8NC[C@H]7C6)C(F)(F)C5)CC4)cc3C2=O)C(=O)N1 (some centres unmarked) [Example 260] , is 75 to 85%

Dmax recorded for this compound, O=C1CCC(N2C(=O)c3cccc(N4CCC(N5CCC(N6CCN7c8cc(-c9ccccc9O)nnc8NC[C@H]7C6)CC5)CC4)c3C2=O)C(=O)N1 (some centres unmarked) [Example 66] , is > 85%

Dmax recorded for this compound, O=C1CCC(N2Cc3ccc(N4CCOC(CN5CCN(C(=O)N6CCN7c8cc(-c9ccccc9O)nnc8NC[C@H]7C6)CC5)C4)cc3C2=O)C(=O)N1 (some centres unmarked) [Example 111] , is 50 to 75%

Dmax recorded for this compound, O=C1CCC(N2C(=O)c3ccc(Nc4cccc(N5CCC(N6CCN7c8cc(-c9ccccc9O)nnc8NC[C@H]7C6)CC5)c4)cc3C2=O)C(=O)N1 (some centres unmarked) [Example 244] , is 75 to 85%

###

- measured on: SMARCA4-HiBiT (Homo sapiens)
- Construct: SMARCA4-HiBiT knock-in Hela monoclonal cell (CS3023226); host or cells: HeLa monoclonal knock-in line (CRISPR HiBiT knock-in at the endogenous locus, heterozygous)
- Sequence (P51532 whole entry): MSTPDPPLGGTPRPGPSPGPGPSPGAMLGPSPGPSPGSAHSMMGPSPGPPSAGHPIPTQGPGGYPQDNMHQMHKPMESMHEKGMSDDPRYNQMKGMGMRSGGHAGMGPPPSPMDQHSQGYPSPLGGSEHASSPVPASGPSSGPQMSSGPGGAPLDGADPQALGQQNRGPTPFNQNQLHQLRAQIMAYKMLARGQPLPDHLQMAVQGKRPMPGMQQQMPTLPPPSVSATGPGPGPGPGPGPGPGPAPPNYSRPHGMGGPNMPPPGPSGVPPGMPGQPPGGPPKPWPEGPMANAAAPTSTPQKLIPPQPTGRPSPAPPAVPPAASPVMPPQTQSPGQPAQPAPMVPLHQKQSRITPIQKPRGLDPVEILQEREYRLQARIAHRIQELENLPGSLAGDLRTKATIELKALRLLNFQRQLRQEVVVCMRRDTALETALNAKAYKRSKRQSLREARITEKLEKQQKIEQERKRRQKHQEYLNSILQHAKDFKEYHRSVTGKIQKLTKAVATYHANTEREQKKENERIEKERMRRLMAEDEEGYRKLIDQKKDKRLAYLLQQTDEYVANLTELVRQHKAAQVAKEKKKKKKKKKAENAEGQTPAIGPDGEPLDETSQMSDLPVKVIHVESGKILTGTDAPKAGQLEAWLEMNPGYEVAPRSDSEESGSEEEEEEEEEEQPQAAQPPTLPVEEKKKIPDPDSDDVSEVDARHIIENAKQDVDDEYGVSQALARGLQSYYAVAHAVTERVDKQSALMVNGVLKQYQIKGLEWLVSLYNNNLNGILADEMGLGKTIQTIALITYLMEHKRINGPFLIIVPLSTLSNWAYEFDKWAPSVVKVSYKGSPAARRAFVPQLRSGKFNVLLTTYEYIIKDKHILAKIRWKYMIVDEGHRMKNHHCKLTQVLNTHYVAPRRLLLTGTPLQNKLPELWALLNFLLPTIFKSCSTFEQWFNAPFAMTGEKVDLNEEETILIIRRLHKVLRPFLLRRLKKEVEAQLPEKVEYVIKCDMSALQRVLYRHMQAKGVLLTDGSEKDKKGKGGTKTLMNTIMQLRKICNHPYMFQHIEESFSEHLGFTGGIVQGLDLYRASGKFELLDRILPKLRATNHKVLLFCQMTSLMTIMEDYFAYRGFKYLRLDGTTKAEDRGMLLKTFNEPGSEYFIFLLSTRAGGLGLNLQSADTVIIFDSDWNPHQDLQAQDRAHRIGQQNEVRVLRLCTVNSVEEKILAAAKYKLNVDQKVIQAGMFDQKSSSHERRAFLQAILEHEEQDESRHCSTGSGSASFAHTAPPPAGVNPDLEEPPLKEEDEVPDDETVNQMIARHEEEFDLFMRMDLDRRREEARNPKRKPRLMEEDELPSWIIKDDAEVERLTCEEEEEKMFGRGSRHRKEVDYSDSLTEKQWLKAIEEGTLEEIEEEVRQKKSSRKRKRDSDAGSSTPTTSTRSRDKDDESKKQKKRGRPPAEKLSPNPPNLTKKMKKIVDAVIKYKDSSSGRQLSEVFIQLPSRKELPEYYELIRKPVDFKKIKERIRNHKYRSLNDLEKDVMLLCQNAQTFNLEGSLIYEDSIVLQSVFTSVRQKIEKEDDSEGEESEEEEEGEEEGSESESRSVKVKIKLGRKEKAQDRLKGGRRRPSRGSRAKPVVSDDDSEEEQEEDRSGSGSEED
- test description: SMARCA4 HiBiT degradation assay in HeLa cells
- Format: cell-based
- conditions: 18 hours incubation, read-out: HeLa-HiBit-SM4 DC50
assay readout: DC50

Sample answers from the record:
| compound | DC50 |
| --- | --- |
| O=C1CCC(N2C(=O)c3ccc(N4CCC(N5C[C@@H]6[C@@H](CN7CCN8c9cc(-c%10ccccc%10O)nnc9NC[C@H]8C7)[C@@H]6C5)CC4)cc3C2=O)C(=O)N1 (stereo partly drawn) | 10 to 100 nM |
| C[C@@H]1C[C@H](CN2CCC(CN3CCN4c5cc(-c6ccccc6O)nnc5NC[C@H]4C3)CC2)CCN1c1ccc2c(c1)C(=O)N(C1CCC(=O)NC1=O)C2=O (stereo partly drawn) | < 10 nM |

DC50 recorded for this compound, N#CC1(CN2CCN3c4cc(-c5ccccc5O)nnc4NC[C@H]3C2)CCN(CC2CCN(c3ccc4c(c3)C(=O)N(C3CCC(=O)NC3=O)C4=O)CC2)CC1 (stereo partly drawn) , is < 10 nM

###

- measured on: SMARCA2-HiBiT (Homo sapiens, UniProt P51531)
- Construct: SMARCA2-HiBiT knock-in Hela monoclonal cell (CS302366); host or cells: HeLa monoclonal knock-in line (CRISPR HiBiT knock-in at the endogenous locus, heterozygous)
- Sequence (P51531 whole entry): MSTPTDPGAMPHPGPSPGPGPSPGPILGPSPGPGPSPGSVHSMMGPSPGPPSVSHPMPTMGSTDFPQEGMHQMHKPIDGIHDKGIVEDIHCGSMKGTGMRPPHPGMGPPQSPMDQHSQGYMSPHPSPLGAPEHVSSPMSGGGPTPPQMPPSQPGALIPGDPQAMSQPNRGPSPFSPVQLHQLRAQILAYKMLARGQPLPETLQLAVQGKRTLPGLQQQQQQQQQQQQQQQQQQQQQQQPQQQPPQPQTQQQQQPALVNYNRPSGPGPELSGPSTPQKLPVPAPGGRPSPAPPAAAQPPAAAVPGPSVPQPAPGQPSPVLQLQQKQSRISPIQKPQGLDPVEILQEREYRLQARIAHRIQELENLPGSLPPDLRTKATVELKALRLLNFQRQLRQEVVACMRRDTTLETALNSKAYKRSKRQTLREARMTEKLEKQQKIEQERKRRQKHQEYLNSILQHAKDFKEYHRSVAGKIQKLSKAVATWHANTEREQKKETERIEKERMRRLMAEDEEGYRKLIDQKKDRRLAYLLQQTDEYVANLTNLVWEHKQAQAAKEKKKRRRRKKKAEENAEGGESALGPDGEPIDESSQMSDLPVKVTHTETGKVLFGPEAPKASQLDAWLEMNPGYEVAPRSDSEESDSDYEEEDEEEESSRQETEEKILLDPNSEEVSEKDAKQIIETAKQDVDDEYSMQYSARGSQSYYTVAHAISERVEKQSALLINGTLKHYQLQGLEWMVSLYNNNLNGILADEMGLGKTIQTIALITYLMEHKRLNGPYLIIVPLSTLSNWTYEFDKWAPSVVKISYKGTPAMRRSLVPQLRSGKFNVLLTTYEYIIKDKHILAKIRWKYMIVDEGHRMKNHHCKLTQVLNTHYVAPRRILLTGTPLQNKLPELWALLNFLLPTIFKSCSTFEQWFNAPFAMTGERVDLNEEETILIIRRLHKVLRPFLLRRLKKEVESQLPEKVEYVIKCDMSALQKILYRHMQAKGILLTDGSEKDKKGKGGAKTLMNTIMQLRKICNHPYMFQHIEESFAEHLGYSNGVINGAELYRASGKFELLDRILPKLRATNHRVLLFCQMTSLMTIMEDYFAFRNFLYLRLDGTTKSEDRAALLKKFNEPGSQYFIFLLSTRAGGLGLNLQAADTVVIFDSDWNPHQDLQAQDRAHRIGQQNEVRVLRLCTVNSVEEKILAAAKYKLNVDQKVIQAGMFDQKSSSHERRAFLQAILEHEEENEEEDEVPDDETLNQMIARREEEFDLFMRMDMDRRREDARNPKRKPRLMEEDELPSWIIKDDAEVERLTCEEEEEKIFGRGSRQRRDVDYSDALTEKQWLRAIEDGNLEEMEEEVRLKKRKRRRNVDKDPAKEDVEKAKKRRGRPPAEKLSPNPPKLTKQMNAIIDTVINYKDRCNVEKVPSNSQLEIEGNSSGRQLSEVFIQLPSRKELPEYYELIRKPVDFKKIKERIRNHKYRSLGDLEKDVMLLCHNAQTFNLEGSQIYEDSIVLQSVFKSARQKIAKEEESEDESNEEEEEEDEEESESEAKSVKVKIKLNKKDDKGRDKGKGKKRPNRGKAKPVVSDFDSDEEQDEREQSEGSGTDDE
- test description: SMARCA2 HiBiT degradation assay in HeLa cells
- Assay type: cell-based
- conditions: HeLa, 18 hours incubation, read-out: HeLa-HiBit-SM2 Dmax (%)
assay readout: Dmax

Sample answers from the record:
| compound | recorded result |
| --- | --- |
| O=C1CCC(N2C(=O)c3ccc(N4CCC(CN5CCC(CN6CCN7c8cc(-c9ccccc9O)nnc8NC[C@H]7C6)CC5CO)CC4)cc3C2=O)C(=O)N1 (stereo partly drawn) [Example 236] | > 85% |
| C[C@@H]1C[C@H](CN2C[C@@H]3[C@H](C2)[C@H]3CN2CCN3c4cc(-c5ccccc5O)nnc4NC[C@H]3C2)CCN1c1ccc2c(c1)C(=O)N(C1CCC(=O)NC1=O)C2=O (stereo partly drawn) [Example 183] | > 85% |
| O=C1CCC(N2Cc3ccc(N4CC(CN5CCC(CN6CCN7c8cc(-c9ccccc9O)nnc8NC[C@H]7C6)CC5)C4)cc3C2=O)C(=O)N1 (stereo partly drawn) [Example 276] | > 85% |
| CC1(CN2C[C@@H]3[C@@H](CN4CCN5c6cc(-c7ccccc7O)nnc6NC[C@H]5C4)[C@@H]3C2)CN(c2ccc3c(c2)C(=O)N(C2CCC(=O)NC2=O)C3=O)CCO1 (stereo partly drawn) [Example 59] | 75 to 85% |
| O=C1CCC(N2C(=O)c3ccc(N4CCC(CN5CCC(F)(CN6CCN7c8cc(-c9ccccc9O)nnc8NC[C@H]7C6)CC5)CC4)cc3C2=O)C(=O)N1 (stereo partly drawn) [Example 175] | > 85% |

Attention now shifts to the item below.
Dmax recorded for this compound, O=C1CCC(N2Cc3ccc(N4CCC(CN5CCN(C(=O)N6CCN7c8cc(-c9ccccc9O)nnc8NC[C@H]7C6)C(CO)C5)CC4)cc3C2=O)C(=O)N1 (stereo partly drawn) [Example 110] , is > 85%

###

- measured on: SMARCA2-HiBiT (Homo sapiens, UniProt P51531)
- Construct: SMARCA2-HiBiT knock-in Hela monoclonal cell (CS302366); host or cells: HeLa monoclonal knock-in line (CRISPR HiBiT knock-in at the endogenous locus, heterozygous)
- test description: SMARCA2 HiBiT degradation assay in HeLa cells
- Type: cell-based
- conditions: HeLa, 18 hours incubation, read-out: HeLa-HiBit-SM2 Dmax (%)
- Experimental: HiBiT peptide knock-in of SMARCA2 in LgBiT expressing HEK293T cells was performed by CRISPR-mediated tagging system as described Promega. The homozygous HiBiT knock-in on c-terminus SMARCA2 was confirmed by sanger sequence. SMARCA2-HiBiT knock-in Hela monoclonal cell (CS302366) and SMARCA4-HiBiT knock-in Hela monoclonal cell (CS3023226) were purchased from Promega. The heterozygous HiBiT-knock-in was confirmed by sanger sequence in both SMARCA2-HiBiT and SMARCA4-HiBiT monoclonal cells. […]
assay readout: Dmax

Sample answers from the record:
| compound | recorded result |
| --- | --- |
| O=C1CCC(N2Cc3ccc(N4CCC(CN5C6CCC5CN(C(=O)N5CCN7c8cc(-c9ccccc9O)nnc8NC[C@H]7C5)C6)CC4)cc3C2=O)C(=O)N1 (stereo partly drawn) [Example 103] | 75 to 85% |
| O=C1CCC(N2C(=O)c3ccc(N4CCC(CN5CCC(CCN6CCN7c8cc(-c9ccccc9O)nnc8NC[C@H]7C6)CC5)CC4)cc3C2=O)C(=O)N1 (stereo partly drawn) [Example 229] | > 85% |

Dmax recorded for this compound, O=C1CCC(N2Cc3cc(OCCN4CCCC(CN5CCN6c7cc(-c8ccccc8O)nnc7NC[C@H]6C5)C4)ccc3C2=O)C(=O)N1 (stereo partly drawn) [Example 255] , is 75 to 85%

Dmax recorded for this compound, O=C1CCC(N2C(=O)c3cccc(N4CCC(CCCN5C6CCC5CC(N5CCN7c8cc(-c9ccccc9O)nnc8NC[C@H]7C5)C6)CC4)c3C2=O)C(=O)N1 (stereo partly drawn) [Example 125] , is 75 to 85%

Dmax recorded for this compound, O=C1CCC(N2Cc3cc(N4CCO[C@@H](CN5C[C@@H]6[C@H](C5)[C@H]6CN5CCN6c7cc(-c8ccccc8O)nnc7NC[C@H]6C5)C4)ccc3C2=O)C(=O)N1 (stereo partly drawn) [Example 267] , is > 85%

Dmax recorded for this compound, O=C1CCC(N2Cc3cc(C4CCN(C5CCCN(CCCN6CCN7c8cc(-c9ccccc9O)nnc8NC[C@H]7C6)C5)CC4)ccc3C2=O)C(=O)N1 (stereo partly drawn) [Example 210] , is > 85%
